- Target: human V1a receptor (Homo sapiens, UniProt P37288)
- Construct: expressed in transfected cells; host or cells: CHO K1 (ATCC), also stably transfected with a modified aequorin
- Sequence (P37288 whole entry): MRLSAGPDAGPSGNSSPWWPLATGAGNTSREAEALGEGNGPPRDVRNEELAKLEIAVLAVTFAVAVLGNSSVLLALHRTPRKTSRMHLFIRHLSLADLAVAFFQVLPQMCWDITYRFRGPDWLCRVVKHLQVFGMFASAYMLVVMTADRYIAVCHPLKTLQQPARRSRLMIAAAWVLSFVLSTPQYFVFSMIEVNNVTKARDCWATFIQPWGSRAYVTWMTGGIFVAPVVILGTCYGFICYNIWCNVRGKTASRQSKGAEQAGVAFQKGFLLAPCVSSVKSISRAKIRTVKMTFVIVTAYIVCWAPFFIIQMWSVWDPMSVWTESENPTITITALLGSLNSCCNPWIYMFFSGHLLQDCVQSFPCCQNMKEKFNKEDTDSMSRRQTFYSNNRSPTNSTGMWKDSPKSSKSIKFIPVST
- Measurement Description: Cellular in vitro assay for determining vasopressin receptor activity, V1a receptor cell line (CHO, aequorin luminescence)
- Type: cell-based
- Experimental Setup: selectivity ratio IC50 hV2 / IC50 hV1a
Kind request: treat 6 as inclusive, so ratio IC50 hV2/hV1a at 6 or higher is YES, anything lower is NO.

Before answering, review these 6 worked examples.
| Compound | Label Value |
| --- | --- |
| CC(O)CNC(=O)c1ccccc1-n1cnc(Cn2nc(-c3ccc(Cl)cc3)n(C[C@H](O)C(F)(F)F)c2=O)n1 (mixture of isomers) | YES |
| O=C(c1ccccc1-n1cnc(Cn2nc(-c3ccc(Cl)cc3)n(C[C@H](O)C(F)(F)F)c2=O)n1)N1CCC(F)(F)C1 | YES |
| CC(C)(O)CNc1ncccc1-n1cnc(Cn2nc(-c3ccc(Cl)cc3)n(C[C@H](O)C(F)(F)F)c2=O)n1 | NO |
| O=c1n(Cc2ncn(-c3cccnc3NCC(F)(F)F)n2)nc(-c2ccc(Cl)cc2)n1C[C@H](O)C(F)(F)F | NO |
| O=C(NCC(O)C(F)(F)F)c1cccc(Cl)c1-n1cnc(Cn2nc(-c3ccc(Cl)cc3)n(C[C@H](O)C(F)(F)F)c2=O)n1 (mixture of isomers) | NO |
| Cc1cncc(NC(=O)c2ccccc2-n2cnc(Cn3nc(-c4ccc(Cl)cc4)n(C[C@H](O)C(F)(F)F)c3=O)n2)c1 | YES |

Next, consider the following compound.
Please tell me: is the compound CC(C)CC(=O)Nc1ncccc1-n1cnc(Cn2nc(-c3ccc(Cl)cc3)n(C[C@H](O)C(F)(F)F)c2=O)n1 at or over 6 in terms of ratio IC50 hV2/hV1a? YES
